Cited source for all entries: ChEMBL document CHEMBL4765241

- protocolDetails: Drug metabolism in Balb/c mouse blood assessed as concentration of parent compound at 0.5 mg/kg, po measured at 24 hrs by LC-MS/MS analysis
- Type: ADME, organism-based
- testSettings: read-out: Ct
measuredQuantity: concentration at 24 h (nM)
Numbers only, in nM.

Asked: Recorded concentration at 24 h of CCCCCC[C@@H]1CCc2cc([C@H]3CC[C@](N)(CO)C3)ccc2C1 [BMS-986104] , please.
Given back: 19

----------
- assayedSystem: UniProt P20813
- Sequence (P20813 whole entry): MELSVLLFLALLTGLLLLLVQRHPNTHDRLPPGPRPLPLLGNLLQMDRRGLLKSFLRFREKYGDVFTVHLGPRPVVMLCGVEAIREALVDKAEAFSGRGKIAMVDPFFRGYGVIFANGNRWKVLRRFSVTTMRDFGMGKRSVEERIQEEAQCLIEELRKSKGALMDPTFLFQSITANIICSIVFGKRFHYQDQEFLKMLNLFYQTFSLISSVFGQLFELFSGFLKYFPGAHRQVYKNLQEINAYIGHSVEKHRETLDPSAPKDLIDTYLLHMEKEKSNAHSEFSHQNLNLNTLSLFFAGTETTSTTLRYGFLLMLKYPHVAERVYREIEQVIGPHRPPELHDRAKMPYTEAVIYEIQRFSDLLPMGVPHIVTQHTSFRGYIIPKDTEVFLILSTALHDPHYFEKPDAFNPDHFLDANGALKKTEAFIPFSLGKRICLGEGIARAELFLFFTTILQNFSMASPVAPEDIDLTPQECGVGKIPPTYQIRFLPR
measuredQuantity: pIC50
Answers are plain numbers, as −log10 of the molar value.

Asked: Recorded pIC50 of `COc1ccccc1CC[C@@H]1CCc2cc([C@H]3CC[C@](N)(CO)C3)ccc2C1` , please.
Given back: 4.77

----------
- protocolDetails: Drug metabolism in Lewis rat blood assessed as concentration of parent compound at 3 mg/kg, po measured at 4 hrs by LC-MS/MS analysis
- Type: ADME, organism-based
- testSettings: read-out: Ct
measuredQuantity: concentration at 4 h (µM)
One number for each entry, in µM.

Asked: Recorded concentration at 4 h of CCCCCC[C@@H]1CCc2cc([C@H]3CC[C@](N)(CO)C3)ccc2C1 [BMS-986104] , please.
Given back: 0.13

----------
- protocolDetails: Distribution coefficient, log D of compound at pH 6.5
- Format: physicochemical
- testSettings: octanol/water
measuredQuantity: logD
One number for each entry.

Asked: Recorded logD of COc1ccccc1CC[C@@H]1CCc2cc([C@H]3CC[C@](N)(CO)C3)ccc2C1 [UDIFITIMOD] , please.
Given back: 5.05

----------
- protocolDetails: Drug metabolism in pH 7.4 Tris-HCl buffer assessed as amount of phosphate ester metabolite formation at […] in presence of sphingosine kinase 1,2 and Mg-ATP incubated for 30 mins by TLC based analysis relative to fingolimod
For each entry below, report its Drug metabolism value.
Answers are plain numbers, in %.

Please review the entries below; each comes with its answer.
COc1ccnc(CC[C@H]2CCc3cc([C@H]4CC[C@](N)(CO)C4)ccc3C2)c1 = 3
Cn1cc(CC[C@@H]2CCc3cc([C@H]4CC[C@](N)(CO)C4)ccc3C2)cn1 = 6

List Drug metabolism for every entry below, keeping the order given.
1. N[C@]1(CO)CC[C@H](c2ccc3c(c2)CC[C@H](CCc2ccccn2)C3)C1
2. Cn1cncc1CCC1CCc2cc([C@H]3CC[C@](N)(CO)C3)ccc2C1 (some centres undefined)

Given back:
1. 1.8
2. 5
